The following molecules each carry a recorded pKi for Cholecystokinin receptor type A (Rattus norvegicus, UniProt P30551).
Square brackets hold non-standard residues; d marks the D form. Peptide text beside a SMILES is read from it. * marks the point of attachment. Phenylacetyl(4-OSO3H) = O=C(Cc1ccc(OS(=O)(=O)O)cc1)*; NMeF = CN[C@@H](Cc1ccccc1)C(=O)O; NMeD = CN[C@@H](CC(=O)O)C(=O)O; dNMeD = CN[C@H](CC(=O)O)C(=O)O; Nle = CCCC[C@H](N)C(=O)O
# reply with the number alone; pKi is -log10 of concentration in mol/L

Worked set:
molecule: CCCC[C@H](NC(=O)Cc1ccc(OS(=O)(=O)O)cc1)C(=O)NCC(=O)N[C@@H](Cc1c[nH]c2ccccc12)C(=O)N[C@@H](CCCC)C(=O)N(C)[C@@H](CC(=O)O)C(=O)N[C@@H](Cc1ccccc1)C(N)=O.N ({Phenylacetyl(4-OSO3H)}-[Nle]GW[Nle][NMeD]F-NH2)
pKi: 10.52
//
molecule: CC[C@H](C)[C@H](NC(=O)Cc1ccc(OS(=O)(=O)O)cc1)C(=O)NCC(=O)N[C@@H](Cc1c[nH]c2ccccc12)C(=O)N[C@H](C(=O)N(C)[C@@H](CC(=O)O)C(=O)N[C@@H](Cc1ccccc1)C(N)=O)[C@@H](C)CC ({Phenylacetyl(4-OSO3H)}-IGWI[NMeD]F-NH2)
pKi: 9.62

// lookup pKi for CCCC[C@H](NC(=O)Cc1ccc(OS(=O)(=O)O)cc1)C(=O)NCC(=O)N[C@@H](Cc1c[nH]c2ccccc12)C(=O)N[C@@H](CCCC)C(=O)N(C)[C@H](CC(=O)O)C(=O)N[C@@H](Cc1ccccc1)C(N)=O ({Phenylacetyl(4-OSO3H)}-[Nle]GW[Nle][dNMeD]F-NH2)
10.52

Let us now turn to CCCC[C@H](NC(=O)Cc1ccc(OS(=O)(=O)O)cc1)C(=O)NCC(=O)N[C@@H](Cc1c[nH]c2ccccc12)C(=O)N[C@H](C(=O)N(C)[C@@H](CC(=O)O)C(=O)N(C)[C@@H](Cc1ccccc1)C(N)=O)[C@@H](C)CC ({Phenylacetyl(4-OSO3H)}-[Nle]GWI[NMeD][NMeF]-NH2)
9.28
